# Tested on: L02
# EXPERIMENT NOTES: Cytotoxicity against human LO2 cells assessed as decrease in cell viability after 48 hrs by MTT assay
# Type: ADME, cell-based
# CONDITION NOTES: L02, 48 h
ENDPOINT LABEL: IC50 (µM)
Give bare numbers, in µM.

Known results for molecules:
>>> recorded_value("C[C@]12O[C@H](C[C@@H](N)[C@H]1O)n1c3ccccc3c3c4c(c5c6ccccc6n2c5c31)CNC4=O")
2.7
>>> recorded_value("C[C@@H]1O[C@@H](n2c3ccccc3c3c4c(c5c6ccccc6[nH]c5c32)CNC4=O)[C@H](O)[C@H](O)[C@H]1O")
73.8
>>> recorded_value("CC(=O)N[C@@H]1C[C@H](n2c3ccccc3c3c4c(c5c6ccccc6[nH]c5c32)CNC4=O)O[C@@H](C)[C@@H]1O")
41.1
>>> recorded_value("C[C@@H]1O[C@@H](n2c3ccccc3c3c4c(c5c6ccccc6[nH]c5c32)CNC4=O)C[C@@H](N)[C@H]1O")
5.8

Answer with the recorded IC50 for the molecule listed here: CC(=O)N[C@@H]1C[C@H]2O[C@@](C)([C@@H]1O)n1c3ccccc3c3c4c(c5c6ccccc6n2c5c31)C(=O)NC4
24.2
